Ref: ChEMBL document CHEMBL1132568

Biological target: 5-hydroxytryptamine receptor 1A (Rattus norvegicus, UniProt P19327)
Sequence (P19327 whole entry): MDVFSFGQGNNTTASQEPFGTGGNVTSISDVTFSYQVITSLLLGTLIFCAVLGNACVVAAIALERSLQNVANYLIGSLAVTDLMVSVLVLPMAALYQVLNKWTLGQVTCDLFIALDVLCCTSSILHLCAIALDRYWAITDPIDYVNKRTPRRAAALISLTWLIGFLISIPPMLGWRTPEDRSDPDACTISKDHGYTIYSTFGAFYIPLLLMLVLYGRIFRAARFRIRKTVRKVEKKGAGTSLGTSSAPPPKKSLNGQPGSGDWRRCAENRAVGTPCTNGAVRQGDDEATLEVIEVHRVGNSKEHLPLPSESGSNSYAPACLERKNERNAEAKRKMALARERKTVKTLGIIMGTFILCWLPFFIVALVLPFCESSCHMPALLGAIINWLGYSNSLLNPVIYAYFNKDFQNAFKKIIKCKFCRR
Experiment: Inhibition concentration against 5-hydroxytryptamine 1A receptor
Quantity measured: pIC50
Just so you know, pIC50 here is -log10 of the concentration in molar units; reply with that number alone.

Query string: Consider the compound shown here: `COc1cc2nc(N3CCN(C(=O)COc4ccccc4OC)CC3)nc(N)c2cc1OC` What is its recorded pIC50?
Result string: 6.77
